Measured inhibition at 1 µM of individual entries
molecular target: Xanthine dehydrogenase/oxidase (Bos taurus, UniProt P80457); assay: Inhibition of bovine xanthine oxidase assessed as reduction in uric acid formation at 1 uM using xanthine as substrate pretreated for 5 mins followed by substrate addition measured by UV-vis spectrophotometric method relative to control; settings: cattle
Sequence (P80457 whole entry): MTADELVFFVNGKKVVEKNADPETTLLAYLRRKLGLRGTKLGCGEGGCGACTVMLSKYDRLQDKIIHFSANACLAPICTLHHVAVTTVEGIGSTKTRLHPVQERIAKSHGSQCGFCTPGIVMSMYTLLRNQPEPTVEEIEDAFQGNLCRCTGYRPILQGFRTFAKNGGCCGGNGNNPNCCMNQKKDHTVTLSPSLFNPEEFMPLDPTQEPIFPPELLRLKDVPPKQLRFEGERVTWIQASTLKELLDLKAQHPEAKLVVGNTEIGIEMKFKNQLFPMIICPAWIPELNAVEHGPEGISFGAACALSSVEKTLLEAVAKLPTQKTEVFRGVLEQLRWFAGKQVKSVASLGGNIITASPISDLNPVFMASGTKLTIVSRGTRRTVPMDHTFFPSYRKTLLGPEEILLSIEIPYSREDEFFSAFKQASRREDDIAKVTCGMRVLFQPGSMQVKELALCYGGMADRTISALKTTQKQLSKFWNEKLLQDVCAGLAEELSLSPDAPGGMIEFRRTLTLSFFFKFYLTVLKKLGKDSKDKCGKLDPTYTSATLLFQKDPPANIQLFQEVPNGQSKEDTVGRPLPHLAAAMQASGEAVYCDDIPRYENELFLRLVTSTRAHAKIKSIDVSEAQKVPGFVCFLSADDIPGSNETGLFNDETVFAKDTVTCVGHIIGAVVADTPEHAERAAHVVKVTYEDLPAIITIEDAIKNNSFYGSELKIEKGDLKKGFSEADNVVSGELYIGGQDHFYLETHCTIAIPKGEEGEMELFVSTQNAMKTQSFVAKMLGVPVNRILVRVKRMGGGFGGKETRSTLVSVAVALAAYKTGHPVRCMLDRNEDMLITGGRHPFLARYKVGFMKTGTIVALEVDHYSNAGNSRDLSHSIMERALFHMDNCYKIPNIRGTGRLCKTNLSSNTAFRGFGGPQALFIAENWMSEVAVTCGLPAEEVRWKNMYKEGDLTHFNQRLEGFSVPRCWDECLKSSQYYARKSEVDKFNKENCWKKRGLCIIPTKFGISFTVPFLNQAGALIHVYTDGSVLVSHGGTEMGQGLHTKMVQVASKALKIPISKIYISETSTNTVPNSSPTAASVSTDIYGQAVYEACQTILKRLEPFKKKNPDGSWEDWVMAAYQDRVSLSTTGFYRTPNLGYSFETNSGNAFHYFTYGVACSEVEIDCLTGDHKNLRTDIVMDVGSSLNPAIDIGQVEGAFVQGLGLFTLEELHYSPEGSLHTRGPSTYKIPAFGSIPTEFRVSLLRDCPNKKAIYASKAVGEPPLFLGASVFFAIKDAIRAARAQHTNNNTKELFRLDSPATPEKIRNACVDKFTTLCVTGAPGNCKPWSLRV

{"columns": ["Molecule", "inhibition at 1 µM (%)"],
 "data": [
  ["COc1ccc(Nc2ncnc3c2C(c2ccc(O)c(OC)c2)C2=C(CCCC2=O)O3)cc1 (stereo unspecified)", 30.3],
  ["COc1ccc(Nc2ncnc3c2C(c2ccc(Br)cc2)c2c(c(=O)oc4ccccc24)O3)cc1 (stereo unspecified)", 22.2],
  ["COc1ccc(Nc2ncnc3c2C(c2cccc(C)c2)C2=C(CCCC2=O)O3)cc1 (stereo unspecified)", 31],
  ["COc1ccc(Nc2ncnc3c2C(c2ccc(F)cc2)c2c(c(=O)oc4ccccc24)O3)cc1 (stereo unspecified)", 24.5],
  ["COc1ccc(Nc2ncnc3c2C(c2ccc(Cl)cc2)C2=C(CCCC2=O)O3)cc1 (stereo unspecified)", 22],
  ["COc1ccc(Nc2ncnc3c2C(c2ccccc2)C2=C(CCCC2=O)O3)cc1 (stereo unspecified)", 29.1]
]}

---

target: Xanthine dehydrogenase/oxidase (Bos taurus)
pIC50: −log10 of the molar value.
Measured pIC50 of individual entries

{"columns": ["Molecule", "Measured target", "pIC50"],
 "data": [
  ["COc1ccc(Nc2ncnc3c2C(c2ccc(Br)cc2)C2=C(CCCC2=O)O3)cc1 (centres undefined)", "Xanthine dehydrogenase/oxidase (Bos taurus)", 4.24],
  ["COc1ccc(Nc2ncnc3c2C(c2ccccc2)C2=C(CCCC2=O)O3)cc1 (centres undefined)", "Xanthine dehydrogenase/oxidase (Bos taurus)", 4.40],
  ["COc1ccc(Nc2ncnc3c2C(c2ccc(F)cc2)C2=C(CCCC2=O)O3)cc1 (centres undefined)", "Xanthine dehydrogenase/oxidase (Bos taurus)", 4.30],
  ["COc1ccc(Nc2ncnc3c2C(c2cc(OC)c(OC)c(OC)c2)c2c(c(=O)oc4ccccc24)O3)cc1 (centres undefined)", "Xanthine dehydrogenase/oxidase (Bos taurus)", 4.38],
  ["COc1ccc(Nc2ncnc3c2C(c2ccc(O)c(OC)c2)c2c(n[nH]c2C)O3)cc1 (centres undefined)", "Xanthine dehydrogenase/oxidase (Bos taurus)", 4.22],
  ["COc1ccc(Nc2ncnc3c2C(c2ccc(Cl)cc2)C2=C(CCCC2=O)O3)cc1 (centres undefined)", "Xanthine dehydrogenase/oxidase (Bos taurus)", 4.26],
  ["COc1ccc(Nc2ncnc3c2C(c2ccc(Br)cc2)c2c(c(=O)oc4ccccc24)O3)cc1 (centres undefined)", "Xanthine dehydrogenase/oxidase (Bos taurus)", 4.22],
  ["COc1ccc(Nc2ncnc3c2C(c2cccc(O)c2)C2=C(CCCC2=O)O3)cc1 (centres undefined)", "Xanthine dehydrogenase/oxidase (Bos taurus)", 4.52],
  ["COc1ccc(Nc2ncnc3c2C(c2ccc(OC)c(OC)c2)c2c(n[nH]c2C)O3)cc1 (centres undefined)", "Xanthine dehydrogenase/oxidase (Bos taurus)", 4.19]
]}

---

biological target: Xanthine dehydrogenase/oxidase (Bos taurus); assay: Inhibition of bovine xanthine oxidase assessed as reduction in uric acid formation at 10 uM using xanthine as substrate pretreated for 5 mins followed by substrate addition measured by UV-vis spectrophotometric method relative to control; conditions: cattle
Decide by inhibition at 10 µM: equal to or exceeding 40% means True, less means False.

{"columns": ["Compound", "Assigned category"],
 "data": [
  ["COc1ccc(Nc2ncnc3c2C(c2ccc(O)c(O)c2)C2=C(CCCC2=O)O3)cc1 (stereo unspecified)", "True"],
  ["COc1ccc(Nc2ncnc3c2C(c2ccccc2OC)C2=C(CCCC2=O)O3)cc1 (stereo unspecified)", "True"],
  ["COc1ccc(Nc2ncnc3c2C(c2cc(OC)c(OC)c(OC)c2)C2=C(CCCC2=O)O3)cc1 (stereo unspecified)", "False"],
  ["COc1ccc(Nc2ncnc3c2C(c2cc(OC)c(OC)c(OC)c2)c2c(c(=O)oc4ccccc24)O3)cc1 (stereo unspecified)", "False"],
  ["COc1ccc(Nc2ncnc3c2C(c2ccc([N+](=O)[O-])cc2)C2=C(CCCC2=O)O3)cc1 (stereo unspecified)", "False"],
  ["COc1ccc(Nc2ncnc3c2C(c2ccc(F)cc2)C2=C(CCCC2=O)O3)cc1 (stereo unspecified)", "False"],
  ["COc1ccc(Nc2ncnc3c2C(c2ccc(OC)c(OC)c2)c2c(n[nH]c2C)O3)cc1 (stereo unspecified)", "False"],
  ["COc1ccc(Nc2ncnc3c2C(c2ccc(OC)cc2)C2=C(CCCC2=O)O3)cc1 (stereo unspecified)", "True"],
  ["COc1ccc(Nc2ncnc3c2C(c2ccc(OC)c(OC)c2)C2=C(CCCC2=O)O3)cc1 (stereo unspecified)", "True"],
  ["COc1ccc(Nc2ncnc3c2C(c2ccc(Cl)cc2)c2c(c(=O)oc4ccccc24)O3)cc1 (stereo unspecified)", "False"]
]}

---

target: Xanthine dehydrogenase/oxidase (Bos taurus, UniProt P80457); assay: Inhibition of bovine xanthine oxidase assessed as reduction in uric acid formation at 100 uM using xanthine as substrate pretreated for 5 mins followed by substrate addition measured by UV-vis spectrophotometric method relative to control; details: cattle
Decide by inhibition at 100 µM: equal to or exceeding 30% means Satisfied, less means Not satisfied.

{"columns": ["Compound", "Assigned category"],
 "data": [
  ["COc1ccc(Nc2ncnc3c2C(c2ccc([N+](=O)[O-])cc2)c2c(c(=O)oc4ccccc24)O3)cc1 (stereo unspecified)", "Satisfied"],
  ["COc1ccc(Nc2ncnc3c2C(c2ccc([N+](=O)[O-])cc2)C2=C(CCCC2=O)O3)cc1 (stereo unspecified)", "Satisfied"],
  ["COc1ccc(Nc2ncnc3c2C(c2cccc([N+](=O)[O-])c2)c2c(c(=O)oc4ccccc24)O3)cc1 (stereo unspecified)", "Satisfied"],
  ["COc1ccc(Nc2ncnc3c2C(c2cccc(Cl)c2)C2=C(CCCC2=O)O3)cc1 (stereo unspecified)", "Satisfied"],
  ["COc1ccc(Nc2ncnc3c2C(c2ccc(Cl)cc2)C2=C(CCCC2=O)O3)cc1 (stereo unspecified)", "Satisfied"],
  ["COc1ccc(Nc2ncnc3c2C(c2ccc(O)c(O)c2)c2c(c(=O)oc4ccccc24)O3)cc1 (stereo unspecified)", "Satisfied"],
  ["COc1ccc(Nc2ncnc3c2C(c2cccc(Cl)c2)c2c(n[nH]c2C)O3)cc1 (stereo unspecified)", "Satisfied"],
  ["COc1ccc(Nc2ncnc3c2C(c2ccccc2)c2c(ccc4ccccc24)O3)cc1 (stereo unspecified)", "Not satisfied"],
  ["COc1ccc(Nc2ncnc3c2C(c2ccc(OC)c(OC)c2)c2c(n[nH]c2C)O3)cc1 (stereo unspecified)", "Satisfied"],
  ["COc1ccc(Nc2ncnc3c2C(c2ccc(O)c(O)c2)c2c(ccc4ccccc24)O3)cc1 (stereo unspecified)", "Satisfied"],
  ["COc1ccc(Nc2ncnc3c2C(c2cccc(O)c2)c2ccc4ccccc4c2O3)cc1 (stereo unspecified)", "Not satisfied"],
  ["COc1ccc(Nc2ncnc3c2C(c2ccc(F)cc2)c2ccc4ccccc4c2O3)cc1 (stereo unspecified)", "Not satisfied"],
  ["COc1ccc(Nc2ncnc3c2C(c2cc(OC)c(OC)c(OC)c2)c2c(c(=O)oc4ccccc24)O3)cc1 (stereo unspecified)", "Satisfied"],
  ["COc1ccc(Nc2ncnc3c2C(c2ccc(Cl)cc2)c2c(n[nH]c2C)O3)cc1 (stereo unspecified)", "Satisfied"],
  ["COc1ccc(Nc2ncnc3c2C(c2cc(OC)c(OC)c(OC)c2)c2ccc4ccccc4c2O3)cc1 (stereo unspecified)", "Not satisfied"],
  ["COc1ccc(Nc2ncnc3c2C(c2cc(OC)c(OC)c(OC)c2)c2c(ccc4ccccc24)O3)cc1 (stereo unspecified)", "Not satisfied"],
  ["COc1ccc(Nc2ncnc3c2C(c2cccc(O)c2)c2c(n[nH]c2C)O3)cc1 (stereo unspecified)", "Satisfied"],
  ["COc1ccc(Nc2ncnc3c2C(c2cccc(O)c2)C2=C(CCCC2=O)O3)cc1 (stereo unspecified)", "Satisfied"],
  ["COc1ccc(Nc2ncnc3c2C(c2ccc(O)c(OC)c2)C2=C(CCCC2=O)O3)cc1 (stereo unspecified)", "Satisfied"],
  ["COc1ccc(Nc2ncnc3c2C(c2cccc(Cl)c2)c2c(ccc4ccccc24)O3)cc1 (stereo unspecified)", "Not satisfied"],
  ["COc1ccc(Nc2ncnc3c2C(c2ccc([N+](=O)[O-])cc2)c2c(ccc4ccccc24)O3)cc1 (stereo unspecified)", "Not satisfied"],
  ["COc1ccc(Nc2ncnc3c2C(c2cccc4ccccc24)c2c(c(=O)oc4ccccc24)O3)cc1 (stereo unspecified)", "Not satisfied"],
  ["COc1ccc(Nc2ncnc3c2C(c2cccc(O)c2)c2c(ccc4ccccc24)O3)cc1 (stereo unspecified)", "Not satisfied"]
]}

---

target: Xanthine dehydrogenase/oxidase (Bos taurus, UniProt P80457); experiment: Inhibition of bovine xanthine oxidase assessed as reduction in uric acid formation at 10 uM using xanthine as substrate pretreated for 5 mins followed by substrate addition measured by UV-vis spectrophotometric method relative to control; settings: cattle

{"columns": ["Compound", "inhibition at 10 µM (%)"],
 "data": [
  ["COc1ccc(Nc2ncnc3c2C(c2ccc([N+](=O)[O-])cc2)c2c(c(=O)oc4ccccc24)O3)cc1 (stereo not given)", 30.5],
  ["COc1ccc(Nc2ncnc3c2C(c2cccc(Cl)c2)c2c(c(=O)oc4ccccc24)O3)cc1 (stereo not given)", 34.5],
  ["COc1ccc(Nc2ncnc3c2C(c2ccccc2)c2c(c(=O)oc4ccccc24)O3)cc1 (stereo not given)", 36.4],
  ["COc1ccc(Nc2ncnc3c2C(c2ccc(Cl)cc2)C2=C(CCCC2=O)O3)cc1 (stereo not given)", 34.5],
  ["COc1ccc(Nc2ncnc3c2C(c2ccc(OC)c(OC)c2)c2c(c(=O)oc4ccccc24)O3)cc1 (stereo not given)", 48]
]}
